Target of assay: GABARAP, O95166
Sequence (O95166 whole entry, the tested form may be a part): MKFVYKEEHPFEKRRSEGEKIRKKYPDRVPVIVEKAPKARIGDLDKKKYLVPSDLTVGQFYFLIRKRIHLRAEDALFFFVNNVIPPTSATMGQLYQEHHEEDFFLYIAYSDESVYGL
Assay summary: median log2 fold change of GCK-ALFA target abundance (FLAG IP / Myc IP barcode read proportion) (log2 ratio); each designed protein is fused to an ALFA-tag nanobody in HEK293 cells to bring the named protein to FLAG-tagged glucokinase (GCK); Myc marks an untargeted standard; higher = target protein stabilised (more abundant)
Test parameters: target protein: 3xFLAG-MCP-GCK-ALFA reporter; HEK293 landing pad (RPLP)
Over roughly 4,500 sequences, “median log2 fold change of GCK-ALFA target abundance (FLAG IP / Myc IP barcode read proportion)” has its median near 0.078; the lowest 2% begin near -0.6. Shown is part of a subset that was picked to be rich in the lowest values.
# if value of median log2 fold change reaches -0.001, tag Condition met; if it stays below, tag Condition not met

binder="GBRAP_137_3669 (protein) MIEAEIELENGLAFARITVEGSKEELERAAEIAEDIAGEIPNLAVSVELSEDGTLVIDVFGTKEDVLKFLKELAKRLNKTVKVKTKNLETGEEKEEVIEP" cat="Condition met"
binder="GBRAP_125_3094 (protein) EEEALLAALRRLALALGFSEEEAEELAELAARSSLRQTLYALFAAEGYEELADLVEKLTEEQAREALLRLAAWLDAHPDASREEVVARAREIAEELLAAA" cat="Condition met"
binder="GBRAP_160_4781 (protein) SEKKEKLKKAIEEAAKEIKEAIDTESPEQVLTVVRGEGGDILQEAEELGIDNEEALEGLDKGIKELEAAMKAAADASPEEKKAIVDKAKEKMIETLDKLT" cat="Condition met"
binder="GBRAP_160_4794 (protein) SERIEKVAEIFREEAERALEMARGETVEERVAIFDVELGSAIMEAIEEGLLNDEEEDIAIEVRDELVEEVRRNPELTEEELRELARRKIEELRERLEELE" cat="Condition met"
binder="GBRAP_184_5187 (protein) MVVEEELEIEDVAEARAKIAAIGERIAGKKAKLRVIVKAKKITVEIARTIMEGLGAIKAAGNATDITVELVGEMSEEVIDTAVELAKKAGIRVVIAMSEE" cat="Condition met"
binder="GBRAP_11_2673 (protein) MKEKLLEAAELAEKAAKLVEELIKEGVDNEELLKELKKLLEELKKLAKEYLSKALQKDVEVAEELFKELLEDEENRLEYAEQLLAALRVLEGNLLLEADE" cat="Condition met"
binder="GBRAP_160_4408 (protein) SEELEETAERILEAVEDELELLLELGEVDPEAAAGLLEGTILLEAFEDDSLTEEQEEEIEELAEELAERLERLLKEEGRMTEEIVEELLEEAEEGLEEII" cat="Condition not met"
binder="GBRAP_52_5904 (protein) MREELRAQVEEMLALVRAGDLEGARALAREIAETLNDEELRLLIEEVAALVREAPLEELPAWWRLAEIMAEAFEEAGKDEVLADDLLAATAAAIHERLQR" cat="Condition not met"
binder="GBRAP_128_3567 (protein) STAAAVAQARALLEAIKAGDAATRRAAAEALVALLAAADPETREAITAEILERLPELSAEDLEVLADVFRAARPAADPATAEALAEIQVEALNEREEKEE" cat="Condition met"
binder="GBRAP_184_5275 (protein) KVIHVDIVAETGEEAIKEVKKAAEKAKKEGAKLKINILLENSSVEETIKLFELLKKLKEEGIIEDAVVGIENEKTEEEIDTLLKAADEAGVKLVLAISDE" cat="Condition not met"

Query block: # check: median log2 fold change of GBRAP_53_6397 (protein) SAATIAALLAELRALIAEVDADPTLDPEEVAARAGELLRAAVAAGAPAAELTALARELAAAVAARGLGVEVGTRLAATAAAAGAEEVAAVFTEAAVEDLE is greater than or equal to -0.001
Result block: Condition met

Query block: # check: median log2 fold change of GBRAP_80_6797 (protein) AAAALAAALAALAEVDAELAARVAAIVATARALGVSDADLADFVAAVLELAKADKEEAAALVDETEALLAEEAARGDTANATAVIRVHAGDALLAVEELE is greater than or equal to -0.001
Result block: Condition not met

Query block: # check: median log2 fold change of GBRAP_9_7172 (protein) LKAAAAAAIAELREARDFILEIAPEAAAGAVDAAFDALIAALEAARADPTVTPEQFEATLAAGFAAIRAAAAAHLSPEVAAAVETEMLTVRDIADEKLDE is greater than or equal to -0.001
Result block: Condition not met

Query block: # check: median log2 fold change of GBRAP_125_3124 (protein) AEAQALADLAAVLKALGFDDEDVAEAVELAAAHSIRGTLYAALLALGDEEGADLVAKLTEEQTKEVVAAVNAWLKAHPDATPEEVKEKLLALLKEAVAAS is greater than or equal to -0.001
Result block: Condition not met

Query block: # check: median log2 fold change of GBRAP_186_5371 (protein) EEEAEKEIEEFIDEAAKKGYVISGVLEVKEFTEEAKKKIFDELEALAEFSAEFGYKGALIIKSTVSEEEFEELKKFVEEKRDELSKETGAEVEVKIVHVK is greater than or equal to -0.001
Result block: Condition met

Query block: # check: median log2 fold change of GBRAP_160_4717 (protein) SETAEKLKEYVDEEFDEAEELMKGESIEQRAIILEGTVGEIIMELFENPDASDELIDEVLKIGDEAVATLKANPDLSDEEIEELLDEARDKMKEAIDKHL is greater than or equal to -0.001
Result block: Condition met

Query block: # check: median log2 fold change of GBRAP_184_5064 (protein) KIYEETIEVTNLEEAKEKMKELKEKIKNFKGDLIVHLKLPEFNKEIVKAILDELAEIKKAGYAKNITLGIDADTTEEEVDFLISTADEKGINVVVALREE is greater than or equal to -0.001
Result block: Condition met
